Tested Target: hrPDE5A (Homo sapiens, UniProt O76074)
pIC50: −log10 of the molar value.
Endpoint: pIC50

| Compound | Value Measured |
| --- | --- |
| CC(O)CCCCn1c(=O)c2c(ncn2C)n(C)c1=O (racemic) [(±)-LSF, lisofylline] | < 4.00 |

----------
Tested Target: hrPDE7A (Homo sapiens, UniProt Q13946)
Sequence (Q13946 whole entry): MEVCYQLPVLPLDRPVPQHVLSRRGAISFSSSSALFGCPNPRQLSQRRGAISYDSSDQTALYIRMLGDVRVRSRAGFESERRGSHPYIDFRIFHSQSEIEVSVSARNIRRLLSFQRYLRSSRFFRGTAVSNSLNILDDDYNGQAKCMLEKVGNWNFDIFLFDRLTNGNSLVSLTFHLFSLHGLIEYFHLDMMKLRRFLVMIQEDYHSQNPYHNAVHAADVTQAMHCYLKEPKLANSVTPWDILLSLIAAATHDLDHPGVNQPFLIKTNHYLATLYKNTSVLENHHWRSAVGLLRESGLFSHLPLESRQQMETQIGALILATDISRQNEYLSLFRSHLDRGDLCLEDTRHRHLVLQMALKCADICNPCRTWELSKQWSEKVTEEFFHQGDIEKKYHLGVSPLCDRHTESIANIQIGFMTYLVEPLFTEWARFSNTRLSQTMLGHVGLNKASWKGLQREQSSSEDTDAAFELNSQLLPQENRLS
Endpoint: IC50

| Compound | Value Measured |
| --- | --- |
| CC(O)CCCCn1c(=O)c2c(ncn2C)n(C)c1=O (racemic) [(±)-LSF, lisofylline] | 297 µM |

----------
Measurement Protocol: Pharmacokinetics in female Lewis rats
Type: in vivo, rat
Protocol Conditions: rat, plasma, other: IV and SC; female Lewis rats, (±)-LSF IV and SC; read-out: kd, overall parent elimination rate constant, Estimate (CV%) (converted)

| Compound | Result Units | k el |
| --- | --- | --- |
| CC(O)CCCCn1c(=O)c2c(ncn2C)n(C)c1=O (racemic) [(±)-LSF, lisofylline] | s⁻¹ | 0.00353 |
